# Tested on: TF (tissue factor)
# METHOD_SUMMARY: Inhibitory effects on the TF production in LPS-stimulated human peripheral blood monocytes
# Format: cell-based
# EXPERIMENTAL_CONDITIONS: Monocyte, 3 μM, LPS 1 μg/ml, 16 hours
# Method: Peripheral venous blood was sampled from the healthy person, and submitted to density-gradient centrifugation so that monocytes might be isolated. The monocytes thus obtained were washed with minimum essential medium (MEM, Gibco) and suspended in a culture medium (RPMI-1640(Gibco)+25 mM HEPES buffer+100 μg/ml streptomycin+100 U/ml penicillin G+2 mM L-glutamine) to give a suspension with a density of 1×10^6 cells/ml. […]
Kindly supply the reported inhibition at 3 µM values for the records listed here.
One number for each entry, in %.

These solved cases illustrate the format of a correct answer.
SMILES_REPRESENTATION: O=C(Nc1ccccc1C(=O)O)c1ccc(Sc2ccc3ccccc3c2)cc1
READOUT_TYPE: inhibition at 3 µM
RESULT: 100
//
SMILES_REPRESENTATION: O=C(Cc1ccc(Oc2ccc3ccccc3c2)cc1)Nc1ccccc1C(=O)O
READOUT_TYPE: inhibition at 3 µM
RESULT: 26.5
//
SMILES_REPRESENTATION: O=C(Nc1ccccc1-c1nnn[nH]1)c1ccc(Sc2ccc3ccccc3c2)cc1
READOUT_TYPE: inhibition at 3 µM
RESULT: 96.9
//
SMILES_REPRESENTATION: O=C(CCc1ccc(Oc2ccc3ccccc3c2)cc1)Nc1ccccc1C(=O)O
READOUT_TYPE: inhibition at 3 µM
RESULT: 23.5
//
SMILES_REPRESENTATION: O=C(Nc1ccccc1C(=O)O)c1cccc(Oc2ccc3ccccc3c2)c1
READOUT_TYPE: inhibition at 3 µM
RESULT: 83.6

Form field - read-out: inhibition at 3 µM; system: TF (tissue factor); submitted item: "N#Cc1ccccc1NC(=O)c1ccc(Sc2ccc3ccccc3c2)cc1" 77.9

---

# Test system: TF (tissue factor)
# METHOD_SUMMARY: Inhibitory effects on the TF production in LPS-stimulated human peripheral blood monocytes
# Type: cell-based
# EXPERIMENTAL_CONDITIONS: Monocyte, 3 μM, LPS 1 μg/ml, 16 hours
I'd be grateful if you could share measured inhibition at 3 µM for these entries.
One number for each entry, in %.

Example entries and their recorded answers appear below.
SMILES_REPRESENTATION: O=C(Nc1ccccc1C(=O)O)c1ccc(Oc2ccc3cc(O)ccc3c2)cc1
TARGET_ENTITY: TF (tissue factor)
RESULT: 33.4
//
SMILES_REPRESENTATION: O=C(Nc1ccccc1C(=O)O)c1ccc(Cc2ccc3ccccc3c2)cc1
TARGET_ENTITY: TF (tissue factor)
RESULT: 74.4

# per-item lookup of inhibition at 3 µM; items listed below
1. Nc1cc(C(=O)Nc2ccccc2C(=O)O)ccc1Oc1ccc2ccccc2c1
2. O=C(Nc1ccccc1-c1nnn[nH]1)c1ccc(Oc2ccc3ccccc3c2)cc1
3. O=C(C=Cc1ccc(Oc2ccc3ccccc3c2)cc1)Nc1ccccc1C(=O)O
4. O=C(Nc1ccccc1C(=O)O)c1ccc(Oc2ccc3ccccc3c2)c([N+](=O)[O-])c1

[86.9, 99.4, 92.9, 96.6]

Could you tell me inhibition at 3 µM for each of these compounds? They are listed below.
1. COc1ccc2cc(Oc3ccc(C(=O)Nc4ccccc4C(=O)O)cc3)ccc2c1
2. O=C(Nc1ccccc1C(=O)O)c1ccc(Oc2cccc3ccccc23)cc1

1: 100; 2: 96.2

---

# System: human IgG antibodies
# METHOD_SUMMARY: In vitro inhibition of human IgG antibody production (lymphocytes + IL-4 + anti CD40Ab + IL-10, ELISA)
# Type: cell-based
# EXPERIMENTAL_CONDITIONS: Lymphocyte, 3 μM
Could you please report measured inhibition at 3 µM for the items listed next?
Give bare numbers, in %.

MOLECULE: CC(C(=O)Nc1ccccc1C(=O)O)c1ccc(Oc2ccc3ccccc3c2)cc1 (stereo not shown)
TARGET_ENTITY: human IgG antibodies
READOUT_TYPE: inhibition at 3 µM
RESULT: 3.3
--
MOLECULE: O=C(Nc1ccccc1C(=O)O)c1ccc(Cc2ccc3ccccc3c2)cc1
TARGET_ENTITY: human IgG antibodies
READOUT_TYPE: inhibition at 3 µM
RESULT: -4.2
--
MOLECULE: Nc1cc(C(=O)Nc2ccccc2C(=O)O)ccc1Oc1ccc2ccccc2c1
TARGET_ENTITY: human IgG antibodies
READOUT_TYPE: inhibition at 3 µM
RESULT: -12.9
--
MOLECULE: O=C(Cc1ccc(Oc2ccc3cc(OCc4ccccc4)ccc3c2)cc1)Nc1ccccc1C(=O)O
TARGET_ENTITY: human IgG antibodies
READOUT_TYPE: inhibition at 3 µM
RESULT: 83.2
--
MOLECULE: COc1ccc2cc(Oc3ccc(C(=O)Nc4ccccc4C(=O)O)cc3)ccc2c1
TARGET_ENTITY: human IgG antibodies
READOUT_TYPE: inhibition at 3 µM
RESULT: -11.4
--
MOLECULE: COC(=O)c1ccccc1NC(=O)Cc1ccc(Oc2ccc3ccccc3c2)cc1
TARGET_ENTITY: human IgG antibodies
READOUT_TYPE: inhibition at 3 µM
RESULT: -0.8
--
MOLECULE: N#Cc1ccccc1NC(=O)c1ccc(Sc2ccc3ccccc3c2)cc1
TARGET_ENTITY: human IgG antibodies
READOUT_TYPE: inhibition at 3 µM
RESULT: 3.5
--
MOLECULE: O=C(Nc1ccccc1C(=O)O)c1ccc(Oc2ccc3cc(OCc4ccccc4)ccc3c2)cc1
TARGET_ENTITY: human IgG antibodies
READOUT_TYPE: inhibition at 3 µM
RESULT: 11.5
--
MOLECULE: NS(=O)(=O)c1ccccc1NC(=O)c1ccc(Oc2ccc3ccccc3c2)cc1
TARGET_ENTITY: human IgG antibodies
READOUT_TYPE: inhibition at 3 µM
RESULT: -17.2
--
MOLECULE: O=C(C=Cc1ccc(Oc2ccc3ccccc3c2)cc1)Nc1ccccc1C(=O)O
TARGET_ENTITY: human IgG antibodies
READOUT_TYPE: inhibition at 3 µM
RESULT: 10.3

Batch of 3 molecules: report inhibition at 3 µM for each.
1. O=C(Nc1ccccc1C(=O)O)c1ccc(Sc2ccc3ccccc3c2)cc1
2. O=C(Nc1ccccc1C(=O)O)c1ccc(C(=O)c2ccc3ccccc3c2)cc1
3. O=C(Nc1ccccc1O)c1ccc(Oc2ccc3ccccc3c2)cc1 [Compound No. 1106, 2-(4-(2-naphtyloxy)benzamide)phenol]

1. -2.8
2. 5.4
3. -25.3

---

# System: leukotrien B4 (LTB4) production
# METHOD_SUMMARY: Inhibition of leukotrien B4 (LTB4) production in RBL-1 basophils
# Type: cell-based
# EXPERIMENTAL_CONDITIONS: Rattus norvegicus; RBL-1 cells, calcium ionophore A23187
READOUT_TYPE: IC50 (µM)
Numbers only, in µM.

SMILES_REPRESENTATION: O=C(Cc1ccc(Oc2ccc3ccccc3c2)cc1)Nc1ccccc1C(=O)O
UNIT_ABBREVIATION: µM
RESULT: 0.6

So what's the measured IC50 for this one? "O=C(Nc1ccccc1C(=O)O)c1ccc(Oc2ccc3ccccc3c2)cc1" 0.21

---

For each of the molecules below, state its inhibition at 3 µM.
# Test system: human IgG antibodies
# METHOD_SUMMARY: In vitro inhibition of human IgG antibody production (lymphocytes + IL-4 + anti CD40Ab + IL-10, ELISA)
# Type: cell-based
# EXPERIMENTAL_CONDITIONS: Lymphocyte, 3 μM
Numbers only, in %.

MOLECULE: O=C(Nc1ccccc1C(=O)O)c1ccc(Oc2ccc3ccccc3c2)c(C(=O)O)c1 [compound 1120]
inhibition at 3 µM [%]: 13.6

For each entry beneath this line, provide reported inhibition at 3 µM.
1. COC(c1ccc(C(=O)Nc2ccccc2C(=O)O)cc1)c1ccc2ccccc2c1 (stereo not shown) [compound 8102]
2. COC(=O)c1ccccc1NC(=O)c1ccc(Oc2ccc3ccccc3c2)cc1 [Compound No. 1101]
3. CC(C)(C)Oc1ccc2cc(Oc3ccc(CC(=O)Nc4ccccc4C(=O)O)cc3)ccc2c1 [compound 1210]
4. O=C(Cc1ccc(Oc2ccc3cc(OC4CCCCC4)ccc3c2)cc1)Nc1ccccc1C(=O)O [compound 1212]

[9.7, -2.8, 59.9, 74.6]

// each listed molecule needs a value for inhibition at 3 µM
1. O=C(Nc1ccccc1C(=O)O)c1ccc(Oc2ccc3ccccc3c2)c([N+](=O)[O-])c1 [compound 1116]
2. O=C(Nc1ccccc1C(=O)O)c1ccc(Oc2ccc3ccccc3c2)c(C(=O)Nc2ccccc2C(=O)O)c1 [compound 1122]
3. O=C(Nc1ccccc1C(=O)O)c1ccc(Oc2ccc3ccccc3c2)cc1 [Compound No. 1104]

[36.9, 9.7, -6.2]

---

# System: TF (tissue factor)
# METHOD_SUMMARY: Inhibitory effects on the TF production in LPS-stimulated human peripheral blood monocytes
# Assay type: cell-based
# EXPERIMENTAL_CONDITIONS: Monocyte, 3 μM, LPS 1 μg/ml, 16 hours
Can you tell me inhibition at 3 µM for the items I'm about to list?
Answers are plain numbers, in %.

Solved entries (count: 2):
COMPOUND: O=C(Nc1ccccc1C(=O)O)c1ccc(Oc2ccc3ccccc3c2)cc1 [Compound No. 1104]
UNIT_ABBREVIATION: %
inhibition at 3 µM: 90.4
--
COMPOUND: O=C(Nc1ccccc1C(=O)O)c1ccc(CSc2ccc3ccccc3c2)cc1 [compound 6102]
UNIT_ABBREVIATION: %
inhibition at 3 µM: 75.8

Dear reader, for each entry below, please note its inhibition at 3 µM.
1. O=C(Nc1ccccc1C(=O)O)c1ccc(COc2ccc3ccccc3c2)cc1 [compound 5102]
2. O=C(Nc1ccccc1C(=O)O)c1ccc(C(=O)c2ccc3ccccc3c2)cc1 [compound 7102]

[74.1, 10.6]
